targetDesc: T1, human α-CGRP 1-37 (WT) (human, C-terminal amide; N-terminal biotin when captured on the SA chip; 125I-labelled in the radioligand assay)
T1 construct: also called α-human
T1 peptide: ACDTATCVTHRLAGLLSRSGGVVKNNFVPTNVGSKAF
assayExplanation: Biacore, 37°C, Fab over CGRP on SA chip
In this section, each of the binders is paired with its reported pKd.
// field semantics: pKd = negative decimal log of concentration (mol/L)

binder	testReadout	recordedValue
G1 variant M65 Fab (Fab, V domains shown, Fab; constant domains as m1) VH: EVQLVESGGGLVQPGGSLRLSCAASGFTFSNYWISWVRQAPGKGLEWVAEIRSKSDCSATHYAEAVKGRFTISRDNAKNSLYLQMNSLRAEDTAVYYCTVYFDYGLAIQNYWGQGTLVTVSS VL: EIVLTQSPATLSLSPGERATLSCKASKNVGTYVSWYQQKPGQAPRLLIYAASNRYIGIPARFSGSGSGTDFTLTISSLEPEDFAVYYCSQSYNYPYTFGQGTKLEIK	pKd	8.30

Please examine the following record next.
GET /values?readout=pKd&item= G1 variant M7 Fab (Fab, V domains shown, Fab; constant domains as m1) VH: EVQLVESGGGLVQPGGSLRLSCAASGFTFSNYWISWVRQAPGKGLEWVAEIRSESDASATHYAEAVKGRFTISRDNAKNSLYLQMNSLRAEDTAVYYCNCYFDYGLAIQNYWGQGTLVTVSS VL: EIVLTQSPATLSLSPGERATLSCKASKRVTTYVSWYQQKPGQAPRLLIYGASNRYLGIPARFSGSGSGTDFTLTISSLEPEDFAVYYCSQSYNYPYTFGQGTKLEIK
8.82
